Quick reference for pEC50 among some compounds
TEST_TARGET: 5HT2A receptor (Homo sapiens, UniProt P28223)
Sequence (P28223 whole entry): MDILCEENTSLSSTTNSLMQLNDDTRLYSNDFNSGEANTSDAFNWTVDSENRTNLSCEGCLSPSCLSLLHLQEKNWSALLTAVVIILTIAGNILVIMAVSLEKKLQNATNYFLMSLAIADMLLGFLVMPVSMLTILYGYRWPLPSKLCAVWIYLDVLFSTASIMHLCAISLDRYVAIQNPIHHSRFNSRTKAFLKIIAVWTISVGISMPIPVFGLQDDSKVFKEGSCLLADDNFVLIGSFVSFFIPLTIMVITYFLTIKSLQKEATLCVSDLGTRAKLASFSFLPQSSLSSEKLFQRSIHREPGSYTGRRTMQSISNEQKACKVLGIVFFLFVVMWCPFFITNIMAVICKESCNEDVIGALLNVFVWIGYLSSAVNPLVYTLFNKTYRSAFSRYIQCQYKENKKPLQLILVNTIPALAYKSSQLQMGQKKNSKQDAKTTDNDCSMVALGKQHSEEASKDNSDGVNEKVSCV
METHOD_SUMMARY: cell-based
Design: expressed in transfected cells; host or cells: HEK293T cells, transient co-transfection
CONDITION_DETAILS: BRET1 beta-arrestin2 recruitment, HEK293T; read-out: 5HT2A β-Arr EC50
Keep it numeric: pEC50 is minus log10 of the concentration in mol/L.

Consider the reported pEC50 for these compounds:
STRUCTURE_AS_SMILES	pEC50
Clc1cccc2c(C3=CCNC3)n[nH]c12	7.35
CN1CCC=C(c2n[nH]c3c(Cl)cc(F)cc23)C1	6.78
Fc1cc(Cl)c2[nH]nc(C3=CCCNC3)c2c1	7.70
Clc1cccc2c(C3=CCNC3)c[nH]c12	7.22

Then this compound:
Query: Given Cc1c(F)ccc2c(C3=CCCN(C)C3)c[nH]c12 , respond with its pEC50.
Result: 7.20

---

Quick reference for Emax among some compounds
TEST_TARGET: 5HT2A receptor (Homo sapiens, UniProt P28223)
METHOD_SUMMARY: cell-based
Set-up: expressed in transfected cells; host or cells: HEK293T cells, transient co-transfection
CONDITION_DETAILS: HEK-293T, read-out: 5HTA Gq Emax (%), BRET2 Gαq dissociation, HEK293T, normalized to 5-HT
// return numeric value only (unit: %, not printed)

Consider the reported Emax for these compounds:
COMPOUND	ENDPOINT_NAME	SCALE_UNIT	MEAS_VALUE
Clc1cccc2c(C3=CCCCNC3)c[nH]c12	Emax	%	72.5
CCCN1CC=C(c2c[nH]c3c(Cl)cccc23)CC1	Emax	%	41.9
Fc1ccc2c(C34CNCC3C4)c[nH]c2c1Cl (stereo not shown)	Emax	%	81.6

Query: Given [2H]C([2H])([2H])N1CCC=C(c2n[nH]c3c(Cl)cccc23)C1 , respond with its Emax.
Result: 95.3

Query: Given FC(F)(F)CN1CCC=C(c2n[nH]c3c(Cl)cccc23)C1 , respond with its Emax.
Result: 89.8

Query: Given Clc1cccc2c(C34CNCCC3C4)n[nH]c12 (stereo not shown) , respond with its Emax.
Result: 61.3

Query: Given CCCc1cccc2c(C3=CCCN(C)C3)c[nH]c12 , respond with its Emax.
Result: 77.2

Query: Given CCCN1CCC=C(c2c[nH]c3c(Cl)c(F)ccc23)C1 , respond with its Emax.
Result: 84.1

Query: Given CN1CC2CC2(c2n[nH]c3c(Cl)cccc23)C1 (stereo not shown) , respond with its Emax.
Result: 69.7

Query: Given Cc1cccc2c(C3CNC3)c[nH]c12 , respond with its Emax.
Result: 82.1

---

TEST_TARGET: 5HT2A receptor (Homo sapiens)
METHOD_SUMMARY: cell-based
Design: expressed in transfected cells; host or cells: HEK293T cells, transient co-transfection
CONDITION_DETAILS: HEK-293T, BRET1 beta-arrestin2 recruitment, HEK293T, normalized to 5-HT; read-out: 5HT2A β-Arr Emax (%)
Hi! Could you tag entries with Emax below 50% as 1 (yes), and those at or above as 0 (no)? Much appreciated.

Would you please look over these solved cases?
STRUCTURE_AS_SMILES	TEST_TARGET	QUALITATIVE_LABEL
FCCCN1CCC=C(c2n[nH]c3c(Cl)cccc23)C1	5HT2A receptor (Homo sapiens)	1 (yes)
CCCN1CCC=C(c2c[nH]c3c(C)cc(F)cc23)C1	5HT2A receptor (Homo sapiens)	1 (yes)

Query: Does CCN1CCC=C(c2nn(CC)c3c(Cl)cccc23)C1 have Emax strictly under 50%?
Result: 0 (no)

Query: Does FC(F)CN1CCC=C(c2n[nH]c3c(Cl)cccc23)C1 have Emax strictly under 50%?
Result: 0 (no)

---

TEST_TARGET: 5HT2A receptor (Homo sapiens)
METHOD_SUMMARY: biochemical
Assay type: binding
Parameters: expressed in transfected cells; crude membranes
CONDITION_DETAILS: 5HT2A Ki (nM), secondary binding assay, Cheng-Prusoff
Hi! Could you tag entries with Ki below 2000 nM as 1, and those at or above as -1? Much appreciated.

Would you please look over these solved cases?
COMPOUND	QUALITATIVE_LABEL
Cc1ccc2[nH]cc(C3=CCCN(C)C3)c2n1	1
Fc1ccc2c(C3=CCCNC3)c[nH]c2n1	1
N#Cc1cccc2c(C34CNCC3C4(F)F)n[nH]c12 (stereo not drawn)	-1
C1=C(c2c[nH]c3ccncc23)CNCC1	1
CN1CCCC=C(c2n[nH]c3c(Cl)cccc23)C1	1

Query: Does FC(F)(F)CCN1CCC=C(c2n[nH]c3c(Cl)cccc23)C1 have Ki strictly under 2000 nM?
Result: -1

Query: Does CCCN1CC=C(c2n[nH]c3c(Cl)cccc23)C1 have Ki strictly under 2000 nM?
Result: 1

Query: Does Clc1cccc2c(C3=CC4CCC(C3)N4)n[nH]c12 (stereo not drawn) have Ki strictly under 2000 nM?
Result: 1

Query: Does Cc1cccc2c(C34CNCCC3C4(F)F)n[nH]c12 (stereo not drawn) have Ki strictly under 2000 nM?
Result: -1

Query: Does Cc1cccc2c(C34CNCC3C4)c[nH]c12 (stereo not drawn) have Ki strictly under 2000 nM?
Result: 1

Query: Does Cc1cc(Br)cc2c(C3CNC3)c[nH]c12 have Ki strictly under 2000 nM?
Result: 1

Query: Does Cc1cccc2c(C3CN(C)C3)c[nH]c12 have Ki strictly under 2000 nM?
Result: 1

Query: Does Fc1cc(Cl)c2[nH]cc(C3CNCCO3)c2c1 (stereo not drawn) have Ki strictly under 2000 nM?
Result: 1

---

TEST_TARGET: UniProt:P28223
METHOD_SUMMARY: cell-based
Parameters: expressed in transfected cells; host or cells: HEK293T cells, transient co-transfection
CONDITION_DETAILS: BRET2 Gαq dissociation, HEK293T, normalized to 5-HT
Quick reference for 5HTA Gq Emax (%) among some compounds
// return numeric value only (unit: %, not printed)

Consider the reported 5HTA Gq Emax (%) for these compounds:
COMPOUND	ENDPOINT_NAME	MEAS_VALUE
Clc1cccc2c(C34CNCC3C4)c[nH]c12 (single isomer, unassigned) [Example 277]	5HTA Gq Emax (%)	86.5
Clc1cccc2c(C34CNCC3C4)c[nH]c12 (single isomer, unassigned) [Example 278]	5HTA Gq Emax (%)	58.2

Query: Given Clc1cccc2c(C34CNCC3C4)n[nH]c12 (single isomer, unassigned) [Example 273] , respond with its 5HTA Gq Emax (%).
Result: 81.0

Query: Given Clc1cccc2c(C34CNCC3C4)n[nH]c12 (single isomer, unassigned) [Example 274] , respond with its 5HTA Gq Emax (%).
Result: 117.2

---

TEST_TARGET: 5HT2A receptor (Homo sapiens, UniProt P28223)
METHOD_SUMMARY: biochemical
Format: binding
Design: expressed in transfected cells; crude membranes
CONDITION_DETAILS: 5HT2A Ki (nM), secondary binding assay, Cheng-Prusoff
ENDPOINT_NAME: Ki

COMPOUND	TEST_TARGET	Ki
CN1CC(c2c[nH]c3c(Cl)cccc23)C1	5HT2A receptor (Homo sapiens, UniProt P28223)	2010 nM

Query: Given Fc1cccc2c(C34CNCC3C4)n[nH]c12 (stereo not drawn) , respond with its Ki.
Result: 699 nM

Query: Given Clc1cccc2c(C3=CCNC3)n[nH]c12 , respond with its Ki.
Result: 272 nM

Query: Given CCCN1CCC=C(c2c[nH]c3c(C)cc(F)cc23)C1 , respond with its Ki.
Result: 488 nM

Query: Given Clc1cccc2c(C34CNCC3C4)n[nH]c12 (stereo not drawn) [Example 180] , respond with its Ki.
Result: 227 nM

Query: Given FC(F)(F)CN1CCC=C(c2n[nH]c3c(Cl)cccc23)C1 , respond with its Ki.
Result: 389 nM

Query: Given Cc1cccc2c(C3=CN4CCC3CC4)c[nH]c12 , respond with its Ki.
Result: 6020 nM

Query: Given Cc1cccc2c(C34CNCCC3C4)c[nH]c12 (stereo not drawn) , respond with its Ki.
Result: 3150 nM

Query: Given Clc1cccc2c(C3=CCCCNC3)c[nH]c12 , respond with its Ki.
Result: 6240 nM

Query: Given FC1(F)C2CNCC21c1n[nH]c2c(Cl)cccc12 (stereo not drawn) , respond with its Ki.
Result: 3440 nM

Query: Given CC#CCN1CCC=C(c2n[nH]c3c(Cl)cccc23)C1 , respond with its Ki.
Result: 364 nM

Query: Given CCc1cccc2c(C3=CCCN(C4CC4)C3)n[nH]c12 , respond with its Ki.
Result: 634 nM

Query: Given CC(C)c1cccc2c(C3CNC3)c[nH]c12 , respond with its Ki.
Result: 1910 nM
